Ref: PubChem BioAssay (NCATS)

run.description: Quantitative High-Throughput drug screen in 47 multiple myeloma cell lines against the NCATS MIPE library collection: LP1_DSMZ cell viability assay (AID 1918982); also: nearly all actives have a fitted effect of over 35% in size
particulars: LP1 myeloma viability, CellTiter-Glo ATP luminescence, 48 h; series mostly up to 45.8 µM
Results filed as inconclusive are left out. Active and inactive are the calls of the source. Calls follow the shape of the dose curve; as a rule, active = well fitted cell-killing curve with a large enough effect; inconclusive = small, poorly fitted or top-dose-only effect, or effect the other way; inactive = no such curve, though single readings can be large or run the other way. Peptide text beside a SMILES is read from it.
API: response.call in YES (active), NO (inactive)

{"compound": "Cc1ccc(C)c(OCCCC(C)(C)C(=O)O)c1", "class.label": "NO"}
{"compound": "O=Nc1c(-c2c(O)[nH]c3cc(Br)ccc23)[nH]c2ccccc12", "class.label": "YES"}
{"compound": "Nc1nc(OCc2ccccc2)c2[nH]cnc2n1", "class.label": "NO"}
{"compound": "O=C(O)CCNC(=O)c1ccc(N=Nc2ccc(O)c(C(=O)O)c2)cc1", "class.label": "NO"}
{"compound": "NC(=O)Cc1cccc(C(=O)c2ccccc2)c1N", "class.label": "NO"}

Task: Can you look up the reported call for COC(=O)[C@H](Cc1ccccc1)NC(=O)[C@@H](N)CC(=O)O (H-Asp-Phe-OMe) for me?
Result: NO

Task: Thanks! And O=C(O)c1cn(-c2ccc(F)cc2)c2cc(N3CCNCC3)c(F)cc2c1=O ?
Result: NO

Task: Item: Cc1c(OCC(F)(F)F)ccnc1CS(=O)c1nc2ccccc2[nH]1 (stereo unspecified)
Result: NO

Task: Same lookup for COC(=O)C1=C(C)NC(C)=C(C(=O)OCCCN2CCC(c3ccccc3)(c3ccccc3)CC2)C1c1cccc([N+](=O)[O-])c1 (stereo unspecified) , please.
Result: NO

Task: Lookup CC(C)(S)[C@@H](N)C(=O)O
Result: NO

* * *

run.description: Quantitative High-Throughput drug screen in 47 multiple myeloma cell lines against the NCATS MIPE library collection: Karpas620_DSMZ cell viability assay (AID 1918959);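 also: 100% = DMSO-only wells and 0% = cell-free media-only wells; nearly all actives have a fitted effect of over 30% in size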
particulars: Karpas620 myeloma viability, CellTiter-Glo ATP luminescence, 48 h; series mostly up to 45.8 µM
Results filed as inconclusive are left out. Activity calls are given as the source filed them. Calls come from the whole dose curve; as a rule, active = well fitted cell-killing curve with a large enough effect; inconclusive = small, poorly fitted or top-dose-only effect, or effect the other way; inactive = no such curve, though single readings can be large or run the other way. Non-standard residues stand in square brackets, D forms with d. Residues, ends and D or L forms follow the SMILES beside them. *: point of attachment. Sta = CC(C)C[C@H](N)[C@@H](O)CC(=O)O; Isovaleryl = CC(C)CC(=O)*
observation.type: outcome

{"compound": "CC(C)[C@H](N)C(=O)OCCOCn1cnc2c(=O)[nH]c(N)nc21", "observed.value": "inactive"}
{"compound": "CNC[C@H](O)c1ccc(O)c(O)c1", "observed.value": "inactive"}
{"compound": "CC(C)CC(=O)N[C@H](C(=O)N[C@H](C(=O)N[C@@H](CC(C)C)[C@@H](O)CC(=O)N[C@@H](C)C(=O)N[C@@H](CC(C)C)[C@@H](O)CC(=O)O)C(C)C)C(C)C (Isovaleryl-VV[Sta]A[Sta]-OH)", "observed.value": "inactive"}
{"compound": "Oc1ccc(-c2nc(-c3ccc(F)cc3)c(-c3ccncc3)[nH]2)cc1", "observed.value": "inactive"}

* * *

system.under.test: Ferritin light chain (Equus caballus)
run.description: qHTS Validation Assay for Identification of Novel General Anesthetics (AID 2323)
particulars: horse apoferritin, anesthetic-site fluorescent probe displacement; series mostly up to 76.9 µM
Inconclusive results are not listed. The source made the active and inactive calls. The call rests on the fitted dose curve; in most records, active means well fitted curve in the direction sought with a large enough effect; inconclusive means small, poorly fitted or top-dose-only effect, or another doubt; inactive means no such curve, though single readings can be large or run the other way.
Respond only with the outcome that fits, drawn from active, inactive

Task: Check the results log: what was the call for Oc1ccc(-c2nc(-c3ccc(F)cc3)c(-c3ccncc3)[nH]2)cc1 ?
Result: inactive

Task: Same question for C[C@@H](N)C1CCC(C(=O)Nc2ccncc2)CC1 (stereo partly specified) please.
Result: inactive

Task: Try the molecule O=c1c(O)c(-c2ccc(O)cc2O)oc2cc(O)cc(O)c12
Result: inactive

Task: Another: COc1ccccc1N1CCN(CCN(C(=O)C2CCCCC2)c2ccccn2)CC1
Result: inactive

Task: Continue with C[C@H](Cc1ccc(O)c(O)c1)[C@@H](C)Cc1ccc(O)c(O)c1
Result: active

Task: Next up: CC1(C)NC(=O)N(c2ccc([N+](=O)[O-])c(C(F)(F)F)c2)C1=O
Result: inactive

* * *

run.description: Quantitative High-Throughput drug screen in 47 multiple myeloma cell lines against the NCATS MIPE library collection: RPMI8226_ATCC cell viability assay (AID 1919871); also: nearly all actives have a fitted effect of over 30% in size
particulars: RPMI8226 myeloma viability, CellTiter-Glo ATP luminescence, 48 h; series mostly up to 45.8 µM
Source text: PI: Beverly A. Mock Ph.D. Laboratory of Cancer Biology and Genetics, Center for Cancer Research, National Cancer Institute, National Institute of Health, Bethesda, Maryland […] 5; Detector; 425V; Luminescence; Viewlux PerkinElmer. […] 1. […] Briefly, the corresponding myeloma cell lines were screened in 1,536-well plates with 500 cells, 5-uL per well for inhibition of cell viability (assessed by measuring ATP levels with CellTiterGlo). […]
Results filed as inconclusive are left out. Active and inactive are the calls of the source. The call rests on the fitted dose curve; in most records, active means well fitted cell-killing curve with a large enough effect; inconclusive means small, poorly fitted or top-dose-only effect, or effect the other way; inactive means no such curve, though single readings can be large or run the other way.
// allowed return values: 1 = active, -1 = inactive

{"compound": "O=C(CCc1ccc(O)cc1)c1c(O)cc(O)cc1O", "class.label": 1}
{"compound": "Cc1ccc(C)c(OCCCC(C)(C)C(=O)O)c1", "class.label": -1}
{"compound": "Cc1cc2cc3c(C)cc(=O)oc3c(C)c2o1", "class.label": 1}

Task: What was the test verdict on CCN(CCO)CCCC(C)Nc1ccnc2cc(Cl)ccc12 (stereo unspecified) ?
Result: -1

Task: Param item: CN(C)CCc1c[nH]c2ccc(Cn3cncn3)cc12
Result: -1

Task: Now this one: Cc1c(OCC(F)(F)F)ccnc1CS(=O)c1nc2ccccc2[nH]1 (stereo unspecified)
Result: -1

* * *

Catalogue of parasite growth, % of control (lower = inhibition) values
run.description: qHTS profiling of the MIPE4 collection as inhibitors of Plasmodium falciparum (DD2) proliferation (Rep 2) (AID 743346)
particulars: P. falciparum Dd2 in erythrocytes, SYBR Green DNA, 72 h; at 28.5 µM (top of the series) unless noted
Respond with the bare value in %.

For orientation, consider the following solved cases.
{"compound": "COC1=C(OC)C(=O)C(CCCCCCCCCCO)=C(C)C1=O", "observed.value": 32.3}
{"compound": "COc1ccccc1N1CCN(CCN(C(=O)C2CCCCC2)c2ccccn2)CC1", "observed.value": 40.7}
{"compound": "CCCc1cc(=O)[nH]c(=S)[nH]1", "observed.value": 78.2}
{"compound": "COc1cc2nc(N3CCN(C(=O)C4CCCO4)CC3)nc(N)c2cc1OC (stereo unspecified)", "observed.value": 46.2}

Shifting focus to the compound that follows.
Task: # parasite growth, % of control (lower = inhibition) lookup, item O=c1cc(N2CCOCC2)oc2c(-c3ccccc3)cccc12
Result: 78.4

* * *

run.description: Quantitative High-Throughput drug screen in 47 multiple myeloma cell lines against the NCATS MIPE library collection: MM1R_ATCC cell viability assay (AID 1918981); also: nearly all actives have a fitted effect of over 35% in size; also: potency is read from the fitted curve at half-maximal effect
particulars: MM1R multiple myeloma cells, CellTiter-Glo viability, 48 h; series mostly up to 45.8 µM
Records with an inconclusive call do not appear. Calls of active or inactive are those of the source. Calls come from the whole dose curve; as a rule, active = well fitted cell-killing curve with a large enough effect; inconclusive = small, poorly fitted or top-dose-only effect, or effect the other way; inactive = no such curve, though single readings can be large or run the other way.
observation.type: Potency

Please review the entries below; each comes with its answer.
{"compound": "Nc1nc(Cl)nc2c1ncn2[C@H]1C[C@H](O)[C@@H](CO)O1", "observed.value": "0.264 µM (active)"}
{"compound": "CC1=C(C(=O)O)N2C(=O)[C@@H](NC(=O)[C@H](N)C3=CCC=CC3)[C@H]2SC1", "observed.value": "inactive"}
{"compound": "NS(=O)(=O)c1cc(C(=O)O)c(NCc2ccco2)cc1Cl", "observed.value": "inactive"}
{"compound": "O=c1c(O)c(-c2cc(O)c(O)c(O)c2)oc2cc(O)cc(O)c12", "observed.value": "20.9 µM (active)"}
{"compound": "Cc1c(OCC(F)(F)F)ccnc1CS(=O)c1nc2ccccc2[nH]1 (stereo not given)", "observed.value": "0.833 µM (active)"}

Task: Could you tell me which Potency is on file for CN(C)C(=O)[C@H](O)[C@H](Cc1ccccc1)NC(=O)c1cc2cc(Cl)ccc2[nH]1 ?
Result: 13.2 µM (active)

Task: Can you handle Cc1ccc(NC(=O)c2ccc(CN3CCN(C)CC3)cc2)cc1Nc1nccc(-c2cccnc2)n1 next?
Result: inactive

Task: Item: c1cnc2cc3c(cc2n1)C1CNCC3C1
Result: inactive

Task: Field entry: Cc1nccn1CC1CCc2c(c3ccccc3n2C)C1=O (stereo not given)
Result: inactive

* * *

run.description: Quantitative High-Throughput drug screen in 47 multiple myeloma cell lines against the NCATS MIPE library collection: Karpas25_ECACC cell viability assay (AID 1918968; also: nearly all actives have a fitted effect of over 35% in size)
particulars: Karpas25 myeloma viability, CellTiter-Glo ATP, 48 h; series mostly up to 45.8 µM
Results filed as inconclusive are left out. Active and inactive are the calls of the source. Calls come from the whole dose curve; as a rule, active = well fitted cell-killing curve with a large enough effect; inconclusive = small, poorly fitted or top-dose-only effect, or effect the other way; inactive = no such curve, though single readings can be large or run the other way.
Mark one answer only. Choices: 1.0 (active), 0.0 (inactive)

Below, 8 compounds whose answers are already recorded.
{"compound": "O=C1NC(=O)C(c2ccccc2[N+](=O)[O-])=C1Nc1ccc(O)c(Cl)c1", "class.label": 1.0}
{"compound": "COC(=O)C1=C(C)NC(C)=C(C(=O)OC(C)C)C1c1cccc2nonc12 (centres undefined)", "class.label": 1.0}
{"compound": "Clc1ccc(C(Cn2ccnc2)OCc2ccsc2Cl)c(Cl)c1 (centres undefined)", "class.label": 1.0}
{"compound": "CCCCC(CC)COC(=O)C(C#N)=C(c1ccccc1)c1ccccc1 (centres undefined)", "class.label": 0.0}
{"compound": "CCOC(=O)c1c(C)n(C)c2ccc(O)cc12", "class.label": 0.0}
{"compound": "CC[C@]1(O)C[C@H]2CN(CCc3c([nH]c4ccccc34)[C@@](C(=O)OC)(c3cc4c(cc3OC)N(C=O)[C@H]3[C@@](O)(C(=O)OC)[C@H](OC(C)=O)[C@]5(CC)C=CCN6CC[C@]43[C@@H]65)C2)C1", "class.label": 1.0}
{"compound": "COc1cc2c(N3CCN(C(=O)Nc4ccc(OC(C)C)cc4)CC3)ncnc2cc1OCCCN1CCCCC1", "class.label": 1.0}
{"compound": "C[C@@H](c1ncncc1F)[C@](O)(Cn1cncn1)c1ccc(F)cc1F", "class.label": 0.0}

Please find the next compound below.
Task: // outcome(item) with item = Cc1cc2cc3c(C)cc(=O)oc3c(C)c2o1
Result: 1.0
